assay: Solubility in water, buffers and physiological fluids; format: physicochemical; conditions: 0.1 N HCl, simulated gastric fluid; read-out: solubility in 0.1 N HCl
measuredParameter: solubility

Query string: For the compound Cn1cncc1[C@@](N)(c1ccc(Cl)cc1)c1ccc2c(c1)c(-c1cccc(Cl)c1)nc1nnnn12 [R208176] , give its reported solubility.
Result string: 10 to 33 mg/mL

* * *

assay: Solubility in water, buffers and physiological fluids; assay type: physicochemical; settings: aqueous buffer; citrate-HCl buffer pH 4; read-out: solubility in citrate-HCl buffer pH 4
measuredParameter: solubility

Query string: For the compound Cn1cncc1[C@@](N)(c1ccc(Cl)cc1)c1ccc2c(c1)c(-c1cccc(Cl)c1)nc1nnnn12 [R208176] , give its reported solubility.
Result string: 100 to 1000 µg/mL
